Experiment: NOVARTIS: Cytotoxicity against human hepatocellular carcinoma cell line (Huh7)
Assay type: toxicity, cell-based, Huh-7
Conditions: Huh7 cells (hepatocellular carcinoma cell line)
MEASURED ENDPOINT: CC50

# COMPOUND, MEASURED ENDPOINT, MEASUREMENT
rows = [
    ("O=C(c1cc2n(n1)C(C(F)(F)F)CC(c1ccc3c(c1)OCO3)N2)N1CCN(C(c2ccccc2)c2ccccc2)CC1 (stereo not given)", "CC50", "> 100 µM"),
    ("Cc1ccc(O)c(NC(=O)c2cnn3c(C(F)(F)F)cc(-c4ccccc4)nc23)c1", "CC50", "> 100 µM"),
    ("COc1cc(COc2cc(N)c(Cl)cc2C(=O)CCC2CCN(CCNS(C)(=O)=O)CC2)cc(OC)c1", "CC50", "> 13.1 µM"),
    ("COc1c(C=NNc2nc(Nc3ccc([N+](=O)[O-])cc3)nc(N3CCN(C)CC3)n2)cccc1[N+](=O)[O-]", "CC50", "56.9 µM"),
    ("Cc1ccnc(NC(c2ccc3ccccc3c2)c2ccc3cccnc3c2O)c1 (stereo not given)", "CC50", "> 100 µM"),
    ("COC(=O)c1ccc2c(c1)C(=O)c1ccccc1C2C1c2ccccc2C(=O)c2cc(C(=O)OC)ccc21 (stereo not given)", "CC50", "> 10 µM"),
    ("Cc1c(Cl)cccc1NC(=S)N1CCCN(c2ccc(C(F)(F)F)cc2[N+](=O)[O-])CC1", "CC50", "51.4 µM"),
    ("Cc1sc2sc(-c3ccccc3)c(N)[n+]2c1C", "CC50", "> 100 µM"),
    ("CCCCCCN(C(=O)c1cccc([N+](=O)[O-])c1)C(CC)c1nc2ccccc2c(=O)n1-c1ccccc1OC (stereo not given)", "CC50", "> 6.45 µM"),
    ("C[n+]1oc(C=Cc2ccccc2)cc1C=Cc1ccccc1", "CC50", "21.2 µM"),
    ("CCOc1ccc(NC(=O)CSc2nc3cc(OCC)ccc3[nH]2)cc1", "CC50", "> 13.8 µM"),
    ("O=C(O)c1ccc2c(c1)N=CN(C1CCCCC1)C2", "CC50", "> 10 µM"),
    ("COCCOC(=O)C1=C(C)NC2=C(C(=O)CC(c3ccc(OC)c(OC)c3)C2)C1c1ccc(F)cc1 (stereo not given)", "CC50", "46.8 µM"),
    ("CC1=CC(=Cc2sc3ccccc3[n+]2C)C=C(C)O1", "CC50", "8.35 µM"),
    ("Brc1ccc(Nc2nc(NCC3CCCO3)c3ccccc3n2)cc1 (stereo not given)", "CC50", "9.78 µM"),
    ("CCc1ccc(C(=O)C[n+]2cc(-c3ccc(OC)cc3)n3c2CCC3)cc1", "CC50", "> 98 µM"),
    ("O=c1c2ccccc2[nH]c2cc(Cl)ccc12", "CC50", "> 10 µM"),
    ("O=C(COC(=O)c1ccccc1O)c1ccc(Br)cc1", "CC50", "> 10 µM"),
    ("Cc1ccc(C2C3=C(CC(C)(C)CC3=O)N(Cc3ccc4c(c3)OCO4)C3=C2C(=O)CC(C)(C)C3)cc1", "CC50", "> 100 µM"),
    ("COC(=O)c1sc(-c2ccccc2)cc1NC(=O)c1ccc(S(=O)(=O)N2CCCCCC2)cc1", "CC50", "> 14.1 µM"),
]

====

Reported CC50 values for a set of compounds
Assay: NOVARTIS: Cytotoxicity against human hepatocellular carcinoma cell line (Huh7)
Assay type: toxicity, cell-based, Huh-7
Settings: Huh7 cells (hepatocellular carcinoma cell line)

# COMPOUND, CC50
records = [
    ("C[n+]1c(-c2ccccc2)cc(-c2ccccc2)cc1-c1ccccc1", "> 10 µM"),
    ("CC1(C)CC(=O)C(=CNc2nc3c(s2)CCc2c-3cnn2-c2ccccc2)C(=O)C1", "> 10 µM"),
    ("C(=C\\c1ccccc1)/CNC1CCN(Cc2ccccc2)CC1", "> 10 µM"),
    ("CCCCCCN(C(=O)c1ccc2c(c1)OCO2)C(CC)c1nc2ccccc2c(=O)n1-c1ccccc1OC (stereo not given)", "> 4.51 µM"),
    ("CC(C)(C)NC(=O)C(c1ccncc1)N(Cc1ccccc1Cl)C(=O)c1ccc(-c2ccccc2)[nH]1 (stereo not given)", "67.5 µM"),
    ("Fc1ccc(-c2c[n+](Cc3ccc(Cl)cc3Cl)c3n2CCC3)cc1", "> 100 µM"),
    ("CCCc1c(C)nc2ccc(Br)cc2c1O", "> 100 µM"),
    ("Cc1cc(N2CCCC2)nc2ccc(NC(=S)NCCCN3CCN(Cc4ccccc4)CC3)cc12", "55.5 µM"),
    ("CC(=O)Nc1nc(-c2ccc(F)cc2)cs1", "> 100 µM"),
    ("Cc1c(-c2ccc(Cl)cc2)[n+]2c(n1-c1ccccc1)SCCC2", "> 100 µM"),
    ("CCCCCc1ccc(-c2cn3nc(CCCCC)sc3n2)cc1", "> 10 µM"),
    ("O=C1CC(c2ccc(O)cc2)C2=C(CC(c3ccccc3Cl)CC2=O)N1 (stereo not given)", "> 100 µM"),
    ("O=C(C=Cc1ccccc1)c1c(-c2ccccc2)c2cc([N+](=O)[O-])ccc2[nH]c1=O", "> 100 µM"),
    ("CN(C)CCn1cnc2sc3c(c2c1=O)CCC(NCc1cccc(Cl)c1)C3 (stereo not given)", "18.9 µM"),
    ("Cc1ccccc1OCCSc1nc2ccc(NC(=O)c3cccs3)cc2s1", "> 100 µM"),
    ("CCOC(=O)c1cnc2ccc(OC)cc2c1O", "> 100 µM"),
    ("CCCC(=O)O[C@]1(C(=O)CCl)[C@@H](C)CC2C3CCC4=CC(=O)C=C[C@]4(C)[C@@]3(F)C(=O)C[C@@]21C (stereo not given in full)", "> 10 µM"),
    ("Cc1ccc(-c2cc(C)[n+](C)c(-c3ccc(C)cc3)c2)cc1", "7.52 µM"),
    ("COc1ccc(SC2CCN(C3CCOCC3)CC2)cc1", "0.24 µM"),
    ("CCC(C)(O)C(=O)O[C@H]1C(=O)OC2CC3C(C)=C[C@H](O)[C@@H](O)[C@]3(C)C3C24CO[C@]3(O)[C@H](O)[C@H](C)C14 (stereo not given in full)", "> 6.25 µM"),
    ("CC(C)CNC(=O)c1cnc(NCCCN2CCCCC2C)nc1NC1CCCC1 (stereo not given)", "> 10 µM"),
    ("CCN1CCN(c2cc(C)c3cc(NC(=O)c4ccc(OC)c([N+](=O)[O-])c4)ccc3n2)CC1", "15.4 µM"),
    ("CCCCN(C(=O)CCC(=O)Nc1cc(C)on1)C(C(=O)NC1CCCC1)c1ccc(C)o1 (stereo not given)", "> 10 µM"),
    ("O=C(CSc1ccccc1)NCCCCNc1ccnc2cc(Cl)ccc12", "> 10 µM"),
    ("CCCOC(=O)C1=C(C)NC2=C(C(=O)CC(c3ccc(OC)c(OC)c3)C2)C1c1ccc([N+](=O)[O-])cc1 (stereo not given)", "> 100 µM"),
    ("O=C(Nc1ccc(C23CC4CC(CC(c5ccccc5)(C4)C2)C3)cc1)c1cccs1", "> 100 µM"),
    ("C=CCn1nc(C(=O)N2CCCC2)c2c1CCC(N1CCCCCC1)C2 (stereo not given)", "> 10 µM"),
    ("CCCCOc1c2ccccc2nc2ccccc12", "> 10 µM"),
    ("N#Cc1cn(-c2ccc(Cl)cc2)c(=O)n(Cc2c(Cl)cccc2Cl)c1=O", "> 10 µM"),
    ("Cc1ccc(NC(C)c2nc3ccccc3c(=O)n2CCOC2CCCCO2)cc1C (stereo not given)", "> 2.7 µM"),
    ("CN1CCN=C1c1ccc(NC(=O)c2ccc(C(=O)Nc3ccc(C4=NCCN4C)cc3)cc2)cc1", "> 10 µM"),
    ("CC(C)CNc1nc(NCCCn2ccnc2)ncc1C(=O)NCCc1ccccc1", "> 10 µM"),
    ("CCOC(=O)c1sc(NC(=O)C(C)Sc2nnc(CNC(=O)c3cccc(F)c3)n2-c2cccc(C)c2)c(C(=O)OCC)c1C (stereo not given)", "> 100 µM"),
    ("CC(C)OC(=O)c1cccnc1SCC(=O)Nc1ccc(C(F)(F)F)cc1Cl", "> 100 µM"),
    ("O=C1C(=O)N(Cc2cccc3ccccc23)c2ccc(Br)cc21", "> 100 µM"),
    ("CCOc1cc([N+](=O)[O-])cc(C=Nc2cccc(NC(=O)c3ccco3)c2)c1O", "> 10 µM"),
    ("OC(CN1CCN(CC=Cc2ccccc2)CC1)Cn1c2ccc(Br)cc2c2cc(Br)ccc21 (stereo not given)", "> 54.1 µM"),
    ("COc1ccc(C(NC(=O)COc2ccccc2)c2cc(Cl)c3cccnc3c2O)cc1 (stereo not given)", "> 100 µM"),
    ("O=C(NC1CCN(Cc2ccccc2)CC1)c1cc([N+](=O)[O-])cc([N+](=O)[O-])c1", "> 10 µM"),
    ("CCCC(C(=O)NC(C)(C)C)N1C(=O)c2cc(NC(C)=O)ccc2NC(=O)[C@@H]1c1ccccc1 (stereo not given in full)", "5.45 µM"),
]

These measurements were taken from ChEMBL document CHEMBL1156829.
